From: patent US20240391954A1

- Measured target: human MC1R (Homo sapiens)
- Construct: expressed in transfected cells; host or cells: HEK-293 cells stably expressing hMC1R and the GScAMP22F cAMP sensor
- Sequence (Q01726 whole entry): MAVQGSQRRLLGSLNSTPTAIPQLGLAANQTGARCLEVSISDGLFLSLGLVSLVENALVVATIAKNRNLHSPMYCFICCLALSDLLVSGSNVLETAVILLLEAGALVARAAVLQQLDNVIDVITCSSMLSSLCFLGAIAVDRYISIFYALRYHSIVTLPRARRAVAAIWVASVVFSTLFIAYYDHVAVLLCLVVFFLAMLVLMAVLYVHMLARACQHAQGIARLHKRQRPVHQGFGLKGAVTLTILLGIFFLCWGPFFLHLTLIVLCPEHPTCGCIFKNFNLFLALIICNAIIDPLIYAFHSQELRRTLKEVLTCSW
- Assay: split-luciferase cAMP sensor assay, agonist mode, hMC1R
- Type: cell-based
- Study conditions: MC4R versus MC1R
- Method: FIG. 4A-B. (A) Pharmacological properties of exemplary MC4R agonist peptides, including those with improved efficacy in the MC4R+/− mouse (CTX-1211, CTX-1227, and CTX-1228). Concentration-response agonist curves for peptides indicated at the human MC4R (red), human MC3R (blue), human MC5R (green), and human MC1R (black) were determined by a split-luciferase cAMP sensor dynamic assay in HEK-293 cells stably expressing the hMC1R, hMC3R, hMC4R, or hMC5R and the GScAMP22F cAMP sensor. […]
Positions of bridges follow the written chain, without caps; N, C: chain ends. Non-standard residues stand in square brackets, D forms with d. Residues, ends and D or L forms follow the SMILES beside them. 1Nal = N[C@@H](Cc1cccc2ccccc12)C(=O)O; 4Pal = N[C@@H](Cc1ccncc1)C(=O)O; Cit = NC(=O)NCCC[C@H](N)C(=O)O; Nle = CCCC[C@H](N)C(=O)O
Readout name: MC4R selectivity vs MC1R

CC(=O)N[C@H]1CSSC[C@@H](C(N)=O)NC(=O)[C@H](Cc2c[nH]c3ccccc23)NC(=O)[C@H](CCCNC(=N)N)NC(=O)[C@@H](Cc2ccccc2)NC(=O)[C@H](CCCNC(N)=O)NC(=O)CNC1=O [CTX-1630, cyclo(Cys-Gly-Cit-D-Phe-Arg-Trp-Cys)] (Ac-CG[Cit][dF]RWC-NH2; disulfide 1-7 (inferred)) ... 1816
CC(=O)N[C@H]1CSSC[C@@H](C(N)=O)NC(=O)[C@H](Cc2ccccc2)NC(=O)[C@H](CCCNC(=N)N)NC(=O)[C@@H](Cc2ccccc2)NC(=O)[C@H](CCCNC(N)=O)NC(=O)CNC1=O [CTX-1639, cyclo(Cys-Gly-Cit-D-Phe-Arg-Phe-Cys)] (Ac-CG[Cit][dF]RFC-NH2; disulfide 1-7 (inferred)) ... 8.32
CCCC[C@H](NC(=O)[C@H](CCCNC(=N)N)NC(C)=O)C(=O)N[C@H]1CSSC[C@@H](C(N)=O)NC(=O)[C@H](Cc2c[nH]c3ccccc23)NC(=O)[C@H](CCCNC(=N)N)NC(=O)[C@H](Cc2cccc3ccccc23)NC(=O)[C@H](Cc2c[nH]cn2)NC1=O [CTX-1610] (Ac-R[Nle]CH[1Nal]RWC-NH2; disulfide 3-8) ... 0.03
CCCC[C@H](NC(=O)[C@H](CCCNC(=N)N)NC(C)=O)C(=O)N[C@H]1CSSC[C@@H](C(N)=O)NC(=O)[C@@H](Cc2c[nH]c3ccccc23)NC(=O)[C@H](CCCNC(=N)N)NC(=O)[C@@H](Cc2ccccc2)NC(=O)[C@H](CCCNC(=N)N)NC1=O [CTX-1616] (Ac-R[Nle]CR[dF]R[dW]C-NH2; disulfide 3-8) ... 1.51
CCCC[C@H](NC(=O)[C@H](CCCNC(=N)N)NC(C)=O)C(=O)N[C@H]1CSSC[C@@H](C(N)=O)NC(=O)[C@H](Cc2c[nH]c3ccccc23)NC(=O)[C@H](CCCNC(=N)N)NC(=O)[C@@H](Cc2ccccc2)NC(=O)[C@H](Cc2c[nH]cn2)NC1=O [CTX-1227, Arg-Nle-cyclo(Cys-His-D-Phe-Arg-Trp-Cys)] (Ac-R[Nle]CH[dF]RWC-NH2; disulfide 3-8 (inferred)) ... 0.92

Turning now to a further record.
I would be grateful if you could share the reported MC4R selectivity vs MC1R for CCCC[C@H](NC(=O)[C@H](CCCNC(=N)N)NC(C)=O)C(=O)N[C@H]1CSSC[C@@H](C(N)=O)NC(=O)[C@H](Cc2c[nH]c3ccccc23)NC(=O)[C@H](CCCNC(=N)N)NC(=O)[C@@H](Cc2ccccc2)NC(=O)[C@H](Cc2ccncc2)NC1=O [CTX-1621] (Ac-R[Nle]C[4Pal][dF]RWC-NH2; disulfide 3-8 (inferred)) .
82

====

- Assay: Pharmacokinetics: plasma and brain concentration after IP injection
- Type: in vivo, mouse
- Study conditions: female, CD-1, mouse; mice, IP 15 mg/kg, 2 h, brain, mean of 3
- Protocol: FIG. 5. Pharmacokinetic data for an exemplary peptide relative to setmelanotide. Peptides at 1.5 mg/mL in PBS containing 10% DMSO and 10% PEG-400 were given by IP injection (15 mg/kg) to female CD-1 mice (n=15). […] Peptide concentrations at times indicated were determined by LC MS/MS, using non-zero standards in blank Plasma and Brain Samples. […]
Positions of bridges follow the written chain, without caps; N, C: chain ends. Non-standard residues stand in square brackets, D forms with d. Residues, ends and D or L forms follow the SMILES beside them. Nle = CCCC[C@H](N)C(=O)O
Readout name: tissue level at time at 2 h
Write down the value, and be sure its unit follows.

I would be grateful if you could share the reported tissue level at time at 2 h for CCCC[C@H](NC(=O)[C@H](CCCNC(=N)N)NC(C)=O)C(=O)N[C@H]1CSSC[C@@H](C(N)=O)NC(=O)[C@H](Cc2c[nH]c3ccccc23)NC(=O)[C@H](CCCNC(=N)N)NC(=O)[C@@H](Cc2ccccc2)NC(=O)[C@H](Cc2c[nH]cn2)NC1=O [CTX-1227, Arg-Nle-cyclo(Cys-His-D-Phe-Arg-Trp-Cys)] (Ac-R[Nle]CH[dF]RWC-NH2; disulfide 3-8 (inferred)) .
264 ng/g

====

- Measured target: human MC3R (Homo sapiens, UniProt P41968)
- Construct: expressed in transfected cells; host or cells: HEK-293 cells stably expressing the GScAMP22F split-luciferase cAMP sensor (parent reporter line from Promega); MC3R clone generated in-house, G418 selection
- Sequence (P41968 whole entry): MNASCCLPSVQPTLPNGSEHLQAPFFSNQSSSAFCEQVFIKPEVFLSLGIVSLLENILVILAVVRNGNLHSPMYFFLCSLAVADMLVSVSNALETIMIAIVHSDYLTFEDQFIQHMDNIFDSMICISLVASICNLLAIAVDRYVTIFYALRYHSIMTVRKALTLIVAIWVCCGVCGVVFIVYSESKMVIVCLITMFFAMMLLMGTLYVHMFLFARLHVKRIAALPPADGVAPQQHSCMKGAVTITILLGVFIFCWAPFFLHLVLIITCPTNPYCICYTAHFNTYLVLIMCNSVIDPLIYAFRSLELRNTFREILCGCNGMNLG
- Assay: split-luciferase cAMP sensor assay, agonist mode (measurement window 1), hMC3R
- Assay type: cell-based
- Study conditions: % maximal activation, agonist mode; read-out: MC3R cAMP % max activation
Positions of bridges follow the written chain, without caps; N, C: chain ends. Non-standard residues stand in square brackets, D forms with d. Residues, ends and D or L forms follow the SMILES beside them. d1Nal = N[C@H](Cc1cccc2ccccc12)C(=O)O; Cit = NC(=O)NCCC[C@H](N)C(=O)O; Nle = CCCC[C@H](N)C(=O)O; Orn = NCCC[C@H](N)C(=O)O; Aib = CC(C)(N)C(=O)O
Cut-off 70% on Emax, inclusive. At or above means MET; below means NOT MET.

CC(=O)N[C@@H](CCCNC(=N)N)C(=O)N[C@H]1CSSC[C@@H](C(N)=O)NC(=O)[C@H](Cc2ccccc2)NC(=O)[C@H](CCCNC(=N)N)NC(=O)[C@@H](Cc2ccccc2)NC(=O)[C@H](CCCN)NC(=O)C(C)(C)NC1=O [CTX-1602, Arg-cyclo(Cys-Aib-Orn-D-Phe-Arg-Phe-Cys)] (Ac-RC[Aib][Orn][dF]RFC-NH2; disulfide 2-8) ... MET

Form field: Emax at least 70%? Entry: CC(=O)N[C@@H](CCCNC(=N)N)C(=O)N[C@H]1CSSC[C@@H](C(N)=O)NC(=O)[C@@H](Cc2c[nH]c3ccccc23)NC(=O)[C@H](CCCNC(=N)N)NC(=O)[C@@H](Cc2ccccc2)NC(=O)[C@H](Cc2c[nH]cn2)NC(=O)C(C)(C)NC1=O [CTX-1296]
MET

And CC(=O)N[C@@H](CCCNC(=N)N)C(=O)N[C@H]1CSSC[C@@H](C(N)=O)NC(=O)[C@H](Cc2c[nH]c3ccccc23)NC(=O)[C@H](CCCNC(N)=O)NC(=O)[C@@H](Cc2ccccc2)NC(=O)[C@H](CCCNC(=N)N)NC(=O)C(C)(C)NC1=O [CTX-1270, Arg-cyclo(Cys-Aib-Arg-D-Phe-Cit-Trp-Cys)] (Ac-RC[Aib]R[dF][Cit]WC-NH2; disulfide 2-8) ?
NOT MET

And CCCC[C@H](NC(=O)[C@H](CCCNC(=N)N)NC(C)=O)C(=O)N[C@H]1CSSC[C@@H](C(N)=O)NC(=O)[C@H](Cc2c[nH]c3ccccc23)NC(=O)[C@H](CCCNC(=N)N)NC(=O)[C@@H](Cc2cccc3ccccc23)NC(=O)[C@H](CCCNC(=N)N)NC1=O [CTX-1611] (Ac-R[Nle]CR[d1Nal]RWC-NH2; disulfide 3-8 (inferred)) ?
NOT MET

And CCCC[C@H](NC(=O)[C@H](CCCNC(=N)N)NC(C)=O)C(=O)N[C@H]1CSSC[C@@H](C(N)=O)NC(=O)[C@H](Cc2ccccc2)NC(=O)[C@H](CCCNC(=N)N)NC(=O)[C@@H](Cc2ccc(OC)cc2)NC(=O)[C@H](CCCNC(=N)N)NC1=O [CTX-1624] (Ac-R[Nle]CR[dY](Me)RFC-NH2; disulfide 3-8 (inferred)) ?
NOT MET

And CC(=O)N[C@@H](CCCNC(=N)N)C(=O)N[C@H]1CSSC[C@@H](C(N)=O)NC(=O)[C@@H](Cc2c[nH]c3ccccc23)NC(=O)[C@H](CCCNC(=N)N)NC(=O)[C@@H](Cc2ccccc2)NC(=O)[C@H](CCCNC(N)=O)NC(=O)C(C)(C)NC1=O [CTX-1290] (Ac-RC[Aib][Cit][dF]R[dW]C-NH2; disulfide 2-8) ?
NOT MET
